All figures here come from patent US20120135923A1.

Molecular target: human melanocortin receptor subtype 3 (hMC3-R) (human), P41968
Sequence (P41968 whole entry): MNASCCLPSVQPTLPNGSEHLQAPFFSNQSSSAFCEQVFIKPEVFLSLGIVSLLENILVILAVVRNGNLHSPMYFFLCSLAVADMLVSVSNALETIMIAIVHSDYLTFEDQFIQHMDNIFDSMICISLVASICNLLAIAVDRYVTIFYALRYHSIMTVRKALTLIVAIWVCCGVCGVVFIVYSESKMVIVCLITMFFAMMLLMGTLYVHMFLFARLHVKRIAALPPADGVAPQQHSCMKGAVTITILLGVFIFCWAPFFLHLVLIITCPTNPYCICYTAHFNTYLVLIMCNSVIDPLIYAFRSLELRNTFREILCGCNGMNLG
Assay: [125I]-NDP-α-MSH competition, membranes
Bridge positions count the residues as written; N and C are the ends. Square brackets hold non-standard residues; d marks the D form. 2Nal = N[C@@H](Cc1ccc2ccccc2c1)C(=O)O; d2Nal = N[C@H](Cc1ccc2ccccc2c1)C(=O)O
measurement.type: pKi
Please express pKi as -log10 of the molar concentration.

Field pKi (entry Ac-CEH[d2Nal]R[2Nal]ACPPKD-NH2 (disulfide 1-8; SMILES CC(=O)N[C@H]1CSSC[C@@H](C(=O)N2CCC[C@H]2C(=O)N2CCC[C@H]2C(=O)N[C@@H](CCCCN)C(=O)N[C@@H](CC(=O)O)C(N)=O)NC(=O)[C@H](C)NC(=O)[C@H](Cc2ccc3ccccc3c2)NC(=O)[C@H](CCCNC(=N)N)NC(=O)[C@@H](Cc2ccc3ccccc3c2)NC(=O)[C@H](Cc2c[nH]cn2)NC(=O)[C@H](CCC(=O)O)NC1=O) [Ac-c(Cys-Glu-His-D-2-Nal-Arg-2-Nal-Ala-Cys)-Pro-Pro-Lys-Asp-NH2] ) reads 8.04
